Reference source for all entries: patent US8338565B2

Target: TNFα / TNFα receptor (TNFα R1/Fc) (Homo sapiens, UniProt P01375)
Construct: purchased R&D Systems
Sequence (P01375 77-233 limits assumed, species assumed): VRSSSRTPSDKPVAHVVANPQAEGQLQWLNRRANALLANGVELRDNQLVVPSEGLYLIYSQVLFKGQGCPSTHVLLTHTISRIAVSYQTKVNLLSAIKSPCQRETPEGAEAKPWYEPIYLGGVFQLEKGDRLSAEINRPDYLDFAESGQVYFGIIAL
Assay: Inhibition of binding of TNFα to the TNFα receptor (plate ELISA competition)
Conditions: Table 2; read-out: Activity (IC50, inhibition of TNFα binding to TNFα R1/Fc)
Protocol: The compounds listed in Table 2 below were assayed for ability to inhibit binding of TNFα to the TNFα receptor (TNFα R1/Fc). The assays were performed as described in the following procedure: TNFα (R&D Systems) was coated on high binding plate wells (Corning 96-well) at a single uniform concentration of 15 nM, 100 μL/well in PBS. […] The TMB reaction was stopped with the addition of 0.5N HCl and then the plate was read for absorbance at 450 nm.
Numbered stars: 1 amine (or outer) side, 2 acyl side, 3 side chain; on linkers, the order of the positions; unused ones are H or OH. Bridge positions count the residues as written; N and C are the ends. Square brackets hold non-standard residues; d marks the D form. Peptide text beside a SMILES is read from it. Tartaroyl(2R,3R-(OAc)2) = CC(=O)O[C@@H](C(=O)[*:1])[C@@H](OC(C)=O)C(=O)[*:2]; dBip = N[C@H](Cc1ccc(-c2ccccc2)cc1)C(=O)O; dPhe(4-NH2) = Nc1ccc(C[C@@H](N)C(=O)O)cc1; dPhe(4-Br) = N[C@H](Cc1ccc(Br)cc1)C(=O)O; Phe(4-NH2) = Nc1ccc(C[C@H](N)C(=O)O)cc1; hPhe = N[C@@H](CCc1ccccc1)C(=O)O; 2Thi = N[C@@H](Cc1cccs1)C(=O)O; d2Thi = N[C@H](Cc1cccs1)C(=O)O; Suc = O=C(CCC(=O)[*:2])[*:1]
REPORTED PROPERTY: IC50

COMPOUND: O=C1COc2ccc(cc2)C[C@@H](C(=O)O)NC(=O)[C@H](CCc2ccccc2)NC(=O)[C@@H](Cc2ccc(-c3cccnc3)cc2)NC(=O)[C@H](Cc2ccncc2)N1
EXPERIMENTAL VALUE: 10 to 30 µM
--
COMPOUND: O=C(O)CCNC(=O)[C@@H]1Cc2ccc(cc2)NC(=O)[C@H](O)[C@@H](O)C(=O)N[C@H](Cc2cccs2)C(=O)N[C@@H](Cc2ccc(-c3ccccc3)cc2)C(=O)N[C@H](Cc2ccccc2)C(=O)N1
EXPERIMENTAL VALUE: < 10 µM
--
COMPOUND: O=C1CCC(=O)N[C@H](Cc2cccs2)C(=O)N[C@H](Cc2ccc(-c3ccccc3)cc2)C(=O)N[C@@H](Cc2ccccc2)C(=O)N[C@@H](C(=O)O)Cc2ccc(cc2)N1 [Compound 503] ([d2Thi][dBip]F[dPhe(4-NH2)]-OH; linker N-4 via Suc)
EXPERIMENTAL VALUE: > 100 µM
--
COMPOUND: O=C1CCNc2ccc(cc2)C[C@@H](C(=O)O)NC(=O)[C@@H](Cc2ccccc2)NC(=O)[C@H](Cc2ccc(-c3ccccc3)cc2)NC(=O)[C@@H](Cc2cccs2)N1
EXPERIMENTAL VALUE: > 100 µM
--
COMPOUND: CC(=O)O[C@H]1C(=O)Nc2ccc(cc2)C[C@H](C(=O)N[C@@H](Cc2ccccc2)C(=O)O)NC(=O)[C@H](Cc2ccccc2)NC(=O)[C@@H](Cc2ccc(-c3ccccc3)cc2)NC(=O)[C@H](Cc2cccs2)NC(=O)[C@@H]1OC(C)=O [Compound 413] ([2Thi][dBip]F[dPhe(4-NH2)]F-OH; linker N-4 via Tartaroyl(2R,3R-(OAc)2))
EXPERIMENTAL VALUE: > 100 µM

Give IC50 for the following compound: CC(=O)O[C@H]1C(=O)Nc2ccc(cc2)C[C@@H](C(=O)N[C@@H](Cc2ccccc2)C(=O)O)NC(=O)[C@H](CCc2ccccc2)NC(=O)[C@@H](Cc2ccc(Br)cc2)NC(=O)[C@H](Cc2cccs2)NC(=O)[C@@H]1OC(C)=O [Compound 416] ([2Thi][dPhe(4-Br)][hPhe][Phe(4-NH2)]F-OH; linker N-4 via Tartaroyl(2R,3R-(OAc)2)) > 100 µM

----------
Target: TNFα / TNFα receptor (TNFα R1/Fc) (Homo sapiens, UniProt P01375)
Construct: purchased R&D Systems
Assay: Inhibition of binding of TNFα to the TNFα receptor (plate ELISA competition)
Conditions: Table 2; read-out: Activity (IC50, inhibition of TNFα binding to TNFα R1/Fc)
pIC50: −log10 of the molar value. Numbered stars: 1 amine (or outer) side, 2 acyl side, 3 side chain; on linkers, the order of the positions; unused ones are H or OH. Bridge positions count the residues as written; N and C are the ends. Square brackets hold non-standard residues; d marks the D form. Peptide text beside a SMILES is read from it. * marks the point of attachment. Phe(4-CF3) = N[C@@H](Cc1ccc(C(F)(F)F)cc1)C(=O)O; dPhe(3,4-F2) = N[C@H](Cc1ccc(F)c(F)c1)C(=O)O; Bip = N[C@@H](Cc1ccc(-c2ccccc2)cc1)C(=O)O; Phe(4-NH2) = Nc1ccc(C[C@H](N)C(=O)O)cc1; d(hPhe) = N[C@H](CCc1ccccc1)C(=O)O; hPhe = N[C@@H](CCc1ccccc1)C(=O)O; d3Thi = N[C@H](Cc1ccsc1)C(=O)O; Suc = O=C(CCC(=O)[*:2])[*:1]; Bn = c1ccc(C*)cc1
REPORTED PROPERTY: pIC50

Examples with their reported pIC50 follow.
MOLECULE: O=C1N[C@@H](C(=O)O)Cc2ccc(cc2)NC(=O)[C@H](O)[C@@H](O)C(=O)N[C@H](Cc2cccs2)C(=O)N[C@@H](Cc2ccc(-c3ccccc3)cc2)C(=O)N[C@H]1Cc1ccccc1
EXPERIMENTAL VALUE: < 4.00
//
MOLECULE: O=C1CCC(=O)N[C@H](Cc2ccsc2)C(=O)N[C@@H](Cc2ccc(-c3ccccc3)cc2)C(=O)N[C@H](Cc2ccccc2)C(=O)N[C@H](C(=O)O)Cc2ccc(cc2)N1 [Compound 122] ([d3Thi][Bip][dF][Phe(4-NH2)]-OH; linker N-4 via Suc)
EXPERIMENTAL VALUE: 4.00 to 4.52
//
MOLECULE: O=C1CCC(=O)N[C@H](Cc2ccc(F)c(F)c2)C(=O)N[C@@H](Cc2ccc(C(F)(F)F)cc2)C(=O)N[C@H](Cc2ccccc2)C(=O)N[C@H](C(=O)O)Cc2ccc(cc2)N1 [Compound 135] ([dPhe(3,4-F2)][Phe(4-CF3)][dF][Phe(4-NH2)]-OH; linker N-4 via Suc)
EXPERIMENTAL VALUE: 4.00 to 4.52
//
MOLECULE: O=C1CCC(=O)N[C@H](CCc2ccccc2)C(=O)N[C@@H](Cc2ccc(-c3ccccc3)cc2)C(=O)N[C@H](Cc2ccccc2)C(=O)N[C@H](C(=O)N[C@@H](CCc2ccccc2)C(=O)O)Cc2ccc(cc2)N1 [Compound 470] ([d(hPhe)][Bip][dF][Phe(4-NH2)][hPhe]-OH; linker N-4 via Suc)
EXPERIMENTAL VALUE: > 5.00
//
MOLECULE: O=C1CCC(=O)N[C@H](COCc2ccccc2)C(=O)N[C@@H](Cc2ccc(C(F)(F)F)cc2)C(=O)N[C@H](Cc2ccccc2)C(=O)N[C@H](C(=O)O)Cc2ccc(cc2)N1 [Compound 137] ([dS](Bn)[Phe(4-CF3)][dF][Phe(4-NH2)]-OH; linker N-4 via Suc)
EXPERIMENTAL VALUE: 4.00 to 4.52

Give pIC50 for the following molecule: O=C1COc2ccc(cc2)C[C@@H](C(=O)O)NC(=O)[C@@H](CCc2ccccc2)NC(=O)[C@H](Cc2ccc(Br)cc2)NC(=O)[C@@H](Cc2cccs2)N1 < 4.00

Give pIC50 for the following molecule: O=C1COc2ccc(cc2)C[C@@H](C(=O)N[C@@H](CO)C(=O)O)NC(=O)[C@H](Cc2ccc(O)cc2)NC(=O)[C@@H](Cc2ccc(-c3ccccc3)cc2)NC(=O)[C@H](Cc2cccs2)N1 4.00 to 4.52

Give pIC50 for the following molecule: O=C(O)CNC(=O)[C@@H]1Cc2ccc(cc2)OCC(=O)N[C@@H](Cc2cccs2)C(=O)N[C@H](Cc2ccc(-c3ccccc3)cc2)C(=O)N[C@@H](Cc2ccccc2)C(=O)N1 > 5.00

----------
Entries and their measured pIC50 follow.
Biological target: TNFα / TNFα receptor (TNFα R1/Fc) (Homo sapiens)
Construct: purchased R&D Systems
Assay: Inhibition of binding of TNFα to the TNFα receptor (plate ELISA competition)
Settings: Table 2; read-out: Activity (IC50, inhibition of TNFα binding to TNFα R1/Fc)
pIC50: −log10 of the molar value. Numbered stars: 1 amine (or outer) side, 2 acyl side, 3 side chain; on linkers, the order of the positions; unused ones are H or OH. Bridge positions count the residues as written; N and C are the ends. Square brackets hold non-standard residues; d marks the D form. Peptide text beside a SMILES is read from it. * marks the point of attachment. Phe(4-COOH) = N[C@@H](Cc1ccc(C(=O)O)cc1)C(=O)O; Bip = N[C@@H](Cc1ccc(-c2ccccc2)cc1)C(=O)O; Phe(4-NH2) = Nc1ccc(C[C@H](N)C(=O)O)cc1; d(hPhe) = N[C@H](CCc1ccccc1)C(=O)O; d2Thi = N[C@H](Cc1cccs1)C(=O)O; Suc = O=C(CCC(=O)[*:2])[*:1]; Dap = NC[C@H](N)C(=O)O; Bn = c1ccc(C*)cc1; GABA = NCCCC(=O)O; βAla = NCCC(=O)O

MOLECULE: O=C(O)CCC(=O)N[C@H]1CNC(=O)c2ccc(cc2)C[C@@H](C(=O)O)NC(=O)[C@@H](Cc2ccccc2)NC(=O)[C@H](Cc2ccc(-c3ccccc3)cc2)NC(=O)[C@@H](CCc2ccccc2)NC1=O [Compound 267] (Suc-[Dap][d(hPhe)][Bip][dF][Phe(4-COOH)]-OH; lactam 1-5)
REPORTED PROPERTY: pIC50
EXPERIMENTAL VALUE: < 4.00

MOLECULE: O=C1COc2ccc(cc2)C[C@@H](C(=O)O)NC(=O)[C@H](CCc2ccccc2)NC(=O)[C@@H](Cc2ccc(-c3cccnc3)cc2)NC(=O)[C@H](Cc2cccnc2)N1
REPORTED PROPERTY: pIC50
EXPERIMENTAL VALUE: < 4.00

MOLECULE: O=C1COc2ccc(cc2)C[C@@H](C(=O)O)NC(=O)[C@H](c2ccccc2)NC(=O)[C@H](Cc2ccc(-c3ccccc3)cc2)NC(=O)[C@H](Cc2cccs2)N1
REPORTED PROPERTY: pIC50
EXPERIMENTAL VALUE: < 4.00

MOLECULE: O=C(O)CCCNC(=O)[C@@H]1Cc2ccc(cc2)NC(=O)CCC(=O)N[C@H](Cc2cccs2)C(=O)N[C@@H](Cc2ccc(-c3ccccc3)cc2)C(=O)N[C@H](CCc2ccccc2)C(=O)N1 [Compound 449] ([d2Thi][Bip][d(hPhe)][Phe(4-NH2)][GABA]-OH; linker N-4 via Suc)
REPORTED PROPERTY: pIC50
EXPERIMENTAL VALUE: < 4.00

MOLECULE: O=C1CCC(=O)N[C@H](Cc2cccs2)C(=O)N[C@@H](Cc2ccc(OCc3ccccc3)cc2)C(=O)N[C@H](Cc2ccccc2)C(=O)N[C@H](C(=O)O)Cc2ccc(cc2)N1 [Compound 92] ([d2Thi]Y(Bn)[dF][Phe(4-NH2)]-OH; linker N-4 via Suc)
REPORTED PROPERTY: pIC50
EXPERIMENTAL VALUE: 4.00 to 4.52

Give pIC50 for the following molecule: O=C1COc2ccc(cc2)C[C@@H](C(=O)O)NC(=O)[C@H](CCc2ccccc2)NC(=O)[C@@H](Cc2ccc(-c3ccccc3)cc2)NC(=O)[C@H](Cc2ccc(-c3ccncc3)cc2)N1 > 5.00

Give pIC50 for the following molecule: O=C1CCNC(=O)c2ccc(cc2)C[C@@H](C(=O)N[C@@H](Cc2ccccc2)C(=O)O)NC(=O)[C@@H](Cc2ccccc2)NC(=O)[C@H](Cc2ccc(-c3ccccc3)cc2)NC(=O)[C@@H](CCc2ccccc2)N1 [Compound 422] ([βAla][d(hPhe)][Bip][dF][Phe(4-COOH)]F-OH; lactam N-5) > 5.00
